assay: amyloid nucleation score (Sup35N fusion, yeast selection) (log enrichment); library NNK3; higher = more nucleation; inactive = no reads after selection;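 note: zero at mode of non-aggregating sequences after 7 days selection at 30°C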
EXPERIMENTAL_READOUT: amyloid nucleation score

Some solved cases for reference:
>>> print(df.to_string())
              substance    result
0                ANVRMS  inactive
1  IYIHQDPVFKGCYWLRRGVE  inactive
2  GFSYSWNLFILFGQQICWIW  inactive
3  TRNMRWNFVDLARNRASLNS  inactive
4  IVMRPSIGMILYSRSPFVYS  inactive

[ask] Provide only the value of recorded amyloid nucleation score for HFPTCWVGYVKHAVLRYLIY
[reply] inactive

[ask] Provide only the value of recorded amyloid nucleation score for VEYNWSLFFNPRDFRGARDL
[reply] 0.505

[ask] Provide only the value of recorded amyloid nucleation score for KWASFLFYFDVMSYSARELN
[reply] -0.32

[ask] Provide only the value of recorded amyloid nucleation score for YGCRRDIFKYSMTLLMDAID
[reply] inactive

[ask] Provide only the value of recorded amyloid nucleation score for VGFPPSSTSRCR
[reply] inactive

[ask] Provide only the value of recorded amyloid nucleation score for EKFRWQSISIEVECSMAVQH
[reply] inactive

[ask] Provide only the value of recorded amyloid nucleation score for HLPKLLYATFKWSRYSSKFA
[reply] -0.172

* * *

assay: amyloid nucleation score (Sup35N fusion, yeast selection) (log enrichment); library NNK2; higher = more nucleation; inactive = no reads after selection
EXPERIMENTAL_READOUT: amyloid nucleation score
Answer with a number only.

>>> print(df.to_string())
              substance  measured_number
0      SGPVVQDKVYHRVNYF           -0.369
1  HFSYKPVEYPLFSRFKPVFN           -0.025
2            LSVEFARYTG             1.25
3    SESDSTLRSTIDSRLCGS            -0.53
4              MCHVKFIT             3.18
5  NLRGETRGVKLCLIWDVGRA            0.078

[ask] Provide only the value of recorded amyloid nucleation score for CDSWWYFSNKANSLWSKCSA
[reply] -0.723

[ask] Provide only the value of recorded amyloid nucleation score for YVCPIHLSDYEVTLECKSHG
[reply] 2.17

[ask] Provide only the value of recorded amyloid nucleation score for QGCPFWYNYVLVYSVSGGIS
[reply] 2.36

[ask] Provide only the value of recorded amyloid nucleation score for DTPCSYISCMCNTIL
[reply] 9.45

[ask] Provide only the value of recorded amyloid nucleation score for SSIKSSKIGAGGSL
[reply] -0.213

* * *

assay: amyloid nucleation score (Sup35N fusion, yeast selection) (log enrichment); library NNK2; higher = more nucleation; inactive = no reads after selection
amyloid nucleation score vs -0.3: at or above is Yes, below is No.

Record excerpt, results attached:
              substance  category_label
0  VEVSECVHVIMYFRISYNKL             Yes
1  DDWVSGEEFGRSRNLNHFPD              No
2           GLNISPRMYCF             Yes
3  NFLDMEWTNLLSVMCVDFWS             Yes
4  NCGRTNGLCPGYVCVSRLAW             Yes
5           QLHSLKKKRKY              No
6  SLLDWYKSRQSLMGAMLHNC              No
7  WYYRLLWYVLSQGRMRGNVQ             Yes

[ask] Check this substance for amyloid nucleation score at or above -0.3: ECLKYRYSFFNWTSTSVFHA
[reply] No

[ask] Check this substance for amyloid nucleation score at or above -0.3: SSSEVSFSCYVVDVQLS
[reply] No

[ask] Check this substance for amyloid nucleation score at or above -0.3: SSLCIRSAL
[reply] Yes

[ask] Check this substance for amyloid nucleation score at or above -0.3: IVDSFTYTDVSTGSYLFG
[reply] No

[ask] Check this substance for amyloid nucleation score at or above -0.3: DGPWGSMDTRYNSS
[reply] Yes

[ask] Check this substance for amyloid nucleation score at or above -0.3: ILSFTGASNFVCYMIVAKAG
[reply] Yes

Just for reference, the supplement of paper PMC12042874 is where these values come from.
